All figures here come from the supplement of paper PMC12783771.

B1: library; numbered along this chain (parent)
chain: MNIQIGELAKRTACPVVTIRFYEQEGLLPPPGRSRGNFRLYGEEHVERLQFIRHCRSLDMPLSDVRTLLSYRKRPDQDCGEVNMLLDEHIRQVESRIGALLELKHHLVELREACSGARPAQSCGILQGLSDCVCDTRGTTAHPSD

# Variants of: B1
# Experimental details: sfGFP reporter fluorescence (15 h) (µM FITC); higher = higher leak
# Settings: library round: Round 1; ligand: none
Quantity: sfGFP reporter fluorescence
Answer as a number with no unit attached.

response.value for V108L R111L (field: sfGFP reporter fluorescence) = 0.0611

response.value for E94C K104V (field: sfGFP reporter fluorescence) = 0.0704

response.value for N83Y R111D (field: sfGFP reporter fluorescence) = 0.0619

response.value for G128I D131E (field: sfGFP reporter fluorescence) = 0.0825

response.value for unchanged (field: sfGFP reporter fluorescence) = 0.0626

response.value for M84A G124A (field: sfGFP reporter fluorescence) = 0.0619

response.value for V16C K104V (field: sfGFP reporter fluorescence) = 0.0623

response.value for M60L D131C (field: sfGFP reporter fluorescence) = 0.0866

response.value for R111F E112A (field: sfGFP reporter fluorescence) = 0.0596

response.value for N83T E109A P143Y (field: sfGFP reporter fluorescence) = 0.0646

response.value for D64A R111L (field: sfGFP reporter fluorescence) = 0.061
